- measurement-protocol: gradient 5% acetonitrile 3 min, to 50% in 2 min, to 85% in 15 min, held 3 min, 100 µL/min
- test-parameters: column: Zorbax Extend-C18 2.1 x 50 mm; eluents: water / acetonitrile, 0.1% formic acid
metric: RP-LC retention time (s)

Below: 5 compounds and their reported RP-LC retention time.
# compound, units-text, value-reported
data = [
    ("CSc1ccc(NC(=O)c2cn3c(n2)CSCC3)cc1", "s", 727),
    ("CN1C2CC(OC(=O)[C@H](CO)c3ccccc3)CC1C1OC12 (stereo not given in full)", "s", 581),
    ("COc1cc(C2C(=O)N(C3CCCC3)CC(=O)N2Cc2ccco2)ccc1OC(C)C (stereo not given)", "s", 915),
    ("Cc1ccc(-c2nc(-c3ccnc(N4CCOCC4)c3)no2)cc1", "s", 1050),
    ("COc1ccc(-c2noc(C3CCCN3C(=O)Nc3cc(C)ccc3OC)n2)cc1 (stereo not given)", "s", 859),
]

I. COc1ccc(-c2cn3c(CC(=O)Nc4cc(Cl)ccc4OC)csc3n2)cc1
II. CC(C)CNC(=O)N1CCCC(Cc2nncn2C)C1 (stereo not given)
Larger number for RP-LC retention time: I , or II ? Refer to your chosen item by its label in the answer.
I
(I: 847 s, II: 550 s)
